- Assayed system: Protein kinase C eta type (Homo sapiens) (UniProt P24723);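 further: values are the mean percent inhibition of PKC-eta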
- Sequence (P24723 whole entry): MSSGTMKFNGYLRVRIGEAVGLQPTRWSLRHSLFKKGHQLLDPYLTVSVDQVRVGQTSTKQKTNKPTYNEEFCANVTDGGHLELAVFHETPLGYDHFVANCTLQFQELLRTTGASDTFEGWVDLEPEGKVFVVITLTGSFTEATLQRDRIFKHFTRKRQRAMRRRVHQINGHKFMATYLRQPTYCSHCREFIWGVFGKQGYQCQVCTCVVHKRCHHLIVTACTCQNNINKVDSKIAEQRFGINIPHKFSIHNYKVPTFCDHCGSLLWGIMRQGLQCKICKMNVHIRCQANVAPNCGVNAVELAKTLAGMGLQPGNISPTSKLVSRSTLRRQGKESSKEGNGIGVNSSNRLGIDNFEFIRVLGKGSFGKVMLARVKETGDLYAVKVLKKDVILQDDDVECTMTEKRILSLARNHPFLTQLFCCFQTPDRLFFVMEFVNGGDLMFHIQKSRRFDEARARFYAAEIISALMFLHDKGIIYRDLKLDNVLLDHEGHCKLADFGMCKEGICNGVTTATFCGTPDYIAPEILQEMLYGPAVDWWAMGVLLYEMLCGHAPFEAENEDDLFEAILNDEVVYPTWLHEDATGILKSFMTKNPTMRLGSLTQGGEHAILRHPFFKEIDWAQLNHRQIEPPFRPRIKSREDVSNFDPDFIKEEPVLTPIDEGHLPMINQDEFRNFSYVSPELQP
- Protocol conditions: at 0.1 µM
Measurement name: inhibition (%)
# number only, unit % dropped from output

The compound listed as `COC(=O)c1sc(-n2cnc3cc(OC)c(OC)cc32)cc1OCc1ccccc1C(F)(F)F` has a reported inhibition of 2.15

The compound listed as `c1cc(-c2cnn3nc(N4CCOCC4)ccc23)nc(NC2CC2)n1` has a reported inhibition of 2.39

Others:
The compound listed as CC1=C(C(=O)Nc2cc(Cl)c3[nH]ncc3c2)C(c2ccc(C(F)(F)F)cc2)CC(=O)N1 (stereo not given) has a reported inhibition of 5.7

The compound listed as `COC(=O)Nc1nc2ccc(Oc3ccc(NC(=O)Nc4cccc(Cl)c4)cc3)cc2[nH]1` has a reported inhibition of 0.84

The compound listed as `COc1cc(N2CCN(C(C)C)CC2)ccc1Nc1nc(Nc2ccc(F)cc2C(N)=O)c2cc[nH]c2n1` has a reported inhibition of 1.05

The compound listed as `c1ccc(COc2ccc(Nc3ncnc4ccc(-c5ccco5)cc34)cc2)cc1` has a reported inhibition of 0.37

The compound listed as `Fc1cccc(COc2ccc(Nc3ncnc4sc(-c5ccco5)cc34)cc2Cl)c1` has a reported inhibition of 5.34
